Data provenance: patent US20140323501A1

test system: SD rat peripheral blood lymphocyte counts; assay: Effect of S1P1 receptor agonists on rat vein (peripheral) blood lymphocyte counts; type: in vivo; details: Table 1; 10 mg/Kg intragastric; 8 h after administration
test.readout: LYM 8 h

Q: Given CC(C)c1nc(-c2ccc(Oc3ccc(CCC(N)(CO)CO)cc3)cc2)co1 , report its LYM 8 h on SD rat peripheral blood lymphocyte counts.
Ans: 2.10 ± 0.36 × 10^9/L

Q: Given CCc1nc(-c2ccc(Oc3ccc(CCC(N)(CO)CO)cc3)cc2)co1 , report its LYM 8 h on SD rat peripheral blood lymphocyte counts.
Ans: 1.83 ± 0.68 × 10^9/L

Q: Given CCCCCCCCc1ccc(CCC(N)(CO)CO)cc1 [FTY720, reference compound] , report its LYM 8 h on SD rat peripheral blood lymphocyte counts.
Ans: 1.80 ± 0.14 × 10^9/L

Q: Given CCCCc1ccc(Oc2ccc(CCC(N)(CO)CO)cc2)cc1 , report its LYM 8 h on SD rat peripheral blood lymphocyte counts.
Ans: 1.40 ± 0.79 × 10^9/L
